# SYSTEM_NAME: T1, human DR3 (TNFRSF25) expressed on cells (human, UniProt Q93038 25-417)
# T1 sequence: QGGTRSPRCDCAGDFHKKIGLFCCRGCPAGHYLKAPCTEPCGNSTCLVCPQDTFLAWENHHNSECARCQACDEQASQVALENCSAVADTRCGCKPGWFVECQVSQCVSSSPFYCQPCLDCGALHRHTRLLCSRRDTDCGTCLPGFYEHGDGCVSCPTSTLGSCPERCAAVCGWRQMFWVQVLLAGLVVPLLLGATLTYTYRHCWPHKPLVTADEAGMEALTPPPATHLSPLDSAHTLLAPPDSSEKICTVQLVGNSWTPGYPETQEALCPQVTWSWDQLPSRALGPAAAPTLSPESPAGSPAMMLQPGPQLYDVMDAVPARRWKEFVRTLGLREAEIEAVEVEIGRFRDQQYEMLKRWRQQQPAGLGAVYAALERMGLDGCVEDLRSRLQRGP
# ASSAY_REMARKS: cell-based or functional assay
ENDPOINT_NAME: Signal (FLU)
Form entry: value (FLU) — number only.

VHg1/VLg6 (antibody, human IgG1, V domains shown) VH: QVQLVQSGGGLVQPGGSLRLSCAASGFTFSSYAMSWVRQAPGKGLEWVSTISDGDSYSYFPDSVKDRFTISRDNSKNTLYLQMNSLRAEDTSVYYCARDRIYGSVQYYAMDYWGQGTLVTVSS VL: DVVMTQSPPSLPVTPGEPASISCRASESVEFSGTSLMQWYLQKPGQSPQVLIYAASNVESGVPDRFSGSGSGTDFTLKISRVEAEDVGVYYCQQSRKLPYTFGQGTRLEIK	1.5e+06

Please turn your attention to the following entry.
Query :: Identify the reported Signal (FLU) for the following entry. VHg10/VLg13 (antibody, human IgG1, V domains shown) VH: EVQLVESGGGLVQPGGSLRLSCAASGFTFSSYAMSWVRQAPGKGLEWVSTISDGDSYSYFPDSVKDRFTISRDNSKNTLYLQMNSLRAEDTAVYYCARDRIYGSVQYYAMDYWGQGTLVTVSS VL: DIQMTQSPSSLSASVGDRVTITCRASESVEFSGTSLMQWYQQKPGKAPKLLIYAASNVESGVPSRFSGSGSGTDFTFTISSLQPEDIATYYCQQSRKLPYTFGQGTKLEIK
Result :: 3.27e+06
